Cited source: ChEMBL document CHEMBL4425165

experiment: AUC in athymic CD-1 nude mouse at 10 mg/kg, po by LC-MS/MS analysis; type: ADME, organism-based; conditions: in vivo
MEASUREMENT_LABEL: AUC (ng·h/mL)
Express the result in ng·h/mL but write the number alone.

So, Cc1cc(-c2cnn3c(NCC4CCOCC4)cc(N[C@@H](C4CC4)C(C)(C)O)nc23)ccc1C(=O)NC1CC1 ? Its AUC was 20000

// Cc1cc(-c2cnn3c(NCCN4CCOCC4)cc(Oc4cccc(F)c4)nc23)ccc1C(=O)NC1CC1 : AUC value = 3600

Please fill in: AUC reported for Cc1cc(-c2cnn3c(NCC4CC4)cc(NC4CCCC[C@H]4O)nc23)ccc1C(=O)NC1CC1 (single isomer, unassigned) = 3100

// AUC lookup, compound = Cc1cc(-c2cnn3c(NC[C@H]4C[C@H](O)C4)cc(NC4CCCC4)nc23)ccc1C(=O)NC1CC1 , result: 130
